Assay: cytotoxicity MTT assay
Assay type: cell-based, murine
Settings: mouse, B16F10 melanoma cells, 100 μM, read-out: cell viability
property-measured: viability at 48 h, 100 µM

Exam item: Entry S=C(NCc1ccc(CNC(=S)Nc2ccc(Cl)cc2)cc1)Nc1ccc(Cl)cc1 : reported viability at 48 h, 100 µM = ?
Marked response: < 40%

###

Test: cytotoxicity MTT assay
Format: cell-based, murine
Conditions: mouse, B16F10 melanoma cells, 10 μM, read-out: cell viability
property-measured: viability at 48 h, 10 µM

Exam item: Which viability at 48 h, 10 µM is listed for S=C(NCc1ccc(CNC(=S)Nc2ccc(Cl)cc2)cc1)Nc1ccc(Cl)cc1 ?
Marked response: ~75%
